measurement-type: melting point (°C)
Dear colleague, please return just the value in °C, with no unit written.

Recorded melting point, per entry:
>  <compound-structure>
C=CC(=O)N(c1cc(-n2ncc(=O)n(C)c2=O)c(F)cc1C#N)S(=O)(=O)CC

>  <experimental-result>
118

$$$$
>  <compound-structure>
CCS(=O)(=O)N(C(=O)Oc1ccccc1)c1cc(-n2ncc(=O)n(C)c2=O)c(F)cc1C#N

>  <experimental-result>
181

$$$$

Continue with the molecule presented below.
For reference, reported melting point for CCS(=O)(=O)Nc1cc(-n2ncc(=O)n(C)c2=O)c(F)cc1C#N stands at 233
